Assay: pH-solubility in 0.5M Britton Robinson buffer at 25° C.
Format: physicochemical
Settings: aqueous buffer, thermodynamic from solid, pH between about 4 and about 6
REPORTED PROPERTY: solubility

Request: Any idea what its solubility is? The compound is "CN(C)CCc1c[nH]c2ccccc12"
Result: ≥ 90 mg/mL
